Subject Of Test: CYP3A4 (Homo sapiens, UniProt P08684)
Construct: from tissue; host or cells: human liver microsomes
Sequence (P08684 whole entry): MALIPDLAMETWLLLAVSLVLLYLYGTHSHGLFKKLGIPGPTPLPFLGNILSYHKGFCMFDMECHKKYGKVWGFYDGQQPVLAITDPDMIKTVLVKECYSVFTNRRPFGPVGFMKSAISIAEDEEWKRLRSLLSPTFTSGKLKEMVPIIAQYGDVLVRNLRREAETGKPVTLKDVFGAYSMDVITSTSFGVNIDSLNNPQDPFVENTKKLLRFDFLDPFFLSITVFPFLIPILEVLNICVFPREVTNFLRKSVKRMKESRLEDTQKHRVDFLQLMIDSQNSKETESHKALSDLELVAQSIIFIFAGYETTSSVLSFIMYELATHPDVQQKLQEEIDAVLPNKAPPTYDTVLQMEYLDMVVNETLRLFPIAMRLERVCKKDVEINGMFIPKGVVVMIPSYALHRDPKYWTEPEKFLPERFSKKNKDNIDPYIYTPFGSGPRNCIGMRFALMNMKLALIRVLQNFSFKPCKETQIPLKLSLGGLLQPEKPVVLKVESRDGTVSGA
Experiment Notes: Mechanism based inhibition of CYP3A4 assay (MBI 3A4)
Type: in vitro ADME
Protocol Conditions: human liver microsomes, 25 uM, hydroxy-midazolam formation 30 min vs 0 min preincubation
Assignment: determine reported MBI 3A4 [%] for the given compounds.
Answer in %, number only, no unit symbol.

Prompt line: Look up and report measured MBI 3A4 [%] (CYP3A4 (Homo sapiens, UniProt P08684)) for the following compound: C[C@H](Oc1cc(Nc2ccccn2)nc(-c2noc3c2CCC[C@@]32CCCc3sc(N)c(C#N)c32)n1)[C@@H]1CCCN1C [II-16]
Response line: 48

Prompt line: Look up and report measured MBI 3A4 [%] (CYP3A4 (Homo sapiens, UniProt P08684)) for the following compound: C[C@H](Oc1cc(Nc2ncccn2)nc(-c2noc3c2CCC[C@@]32CCCc3sc(N)c(C#N)c32)n1)[C@@H]1CCCN1C [II-17]
Response line: 75

Prompt line: Look up and report measured MBI 3A4 [%] (CYP3A4 (Homo sapiens, UniProt P08684)) for the following compound: C[C@H](Oc1cc(Nc2cccnn2)nc(-c2noc3c2CCC[C@@]32CCCc3sc(N)c(C#N)c32)n1)[C@@H]1CCCN1C [II-18]
Response line: 64

Prompt line: Look up and report measured MBI 3A4 [%] (CYP3A4 (Homo sapiens, UniProt P08684)) for the following compound: C[C@H](Oc1cc(OCC2(N(C)C)CC2)nc(-c2noc3c2CCC[C@@]32CCCc3sc(N)c(C#N)c32)n1)[C@@H]1CCCN1C [II-21]
Response line: 76

Prompt line: Look up and report measured MBI 3A4 [%] (CYP3A4 (Homo sapiens, UniProt P08684)) for the following compound: C[C@H](Oc1cc(O[C@@H]2CNC2(C)C)nc(-c2noc3c2CCC[C@@]32CCCc3sc(N)c(C#N)c32)n1)[C@@H]1CCCN1C [II-9]
Response line: 72

Prompt line: Look up and report measured MBI 3A4 [%] (CYP3A4 (Homo sapiens, UniProt P08684)) for the following compound: C[C@H](Oc1cc(Nc2ccncn2)nc(-c2noc3c2CCC[C@@]32CCCc3sc(N)c(C#N)c32)n1)[C@@H]1CCCN1C [II-15]
Response line: 64

Prompt line: Look up and report measured MBI 3A4 [%] (CYP3A4 (Homo sapiens, UniProt P08684)) for the following compound: C[C@H](Oc1cc(OCC2(N(C)C)COC2)nc(-c2onc3c2CCC[C@@]32CCCc3sc(N)c(C#N)c32)n1)[C@@H]1CCCN1C [Example I-8]
Response line: 77

Prompt line: Look up and report measured MBI 3A4 [%] (CYP3A4 (Homo sapiens, UniProt P08684)) for the following compound: C[C@H](Oc1cc(Nc2cnccn2)nc(-c2noc3c2CCC[C@@]32CCCc3sc(N)c(C#N)c32)n1)[C@@H]1CCCN1C [II-14]
Response line: 67

Prompt line: Look up and report measured MBI 3A4 [%] (CYP3A4 (Homo sapiens, UniProt P08684)) for the following compound: C[C@H](Oc1cc(Nc2ncco2)nc(-c2noc3c2CCC[C@@]32CCCc3sc(N)c(C#N)c32)n1)[C@@H]1CCCN1C [II-13]
Response line: 52

Prompt line: Look up and report measured MBI 3A4 [%] (CYP3A4 (Homo sapiens, UniProt P08684)) for the following compound: COC[C@H](C)Nc1cc(O[C@@H](C)[C@@H]2CCCN2C)nc(-c2onc3c2CCC[C@@]32CCCc3sc(N)c(C#N)c32)n1 [Example I-5]
Response line: 61

Prompt line: Look up and report measured MBI 3A4 [%] (CYP3A4 (Homo sapiens, UniProt P08684)) for the following compound: COCCOc1cc(O[C@@H](C)[C@@H]2CCCN2C)nc(-c2noc3c2CCC[C@@]32CCCc3sc(N)c(C#N)c32)n1 [II-5]
Response line: 69

Prompt line: Look up and report measured MBI 3A4 [%] (CYP3A4 (Homo sapiens, UniProt P08684)) for the following compound: C[C@H](Oc1cc(OCCO)nc(-c2noc3c2CCC[C@@]32CCCc3sc(N)c(C#N)c32)n1)[C@@H]1CCCN1C [II-6]
Response line: 61

Prompt line: Look up and report measured MBI 3A4 [%] (CYP3A4 (Homo sapiens, UniProt P08684)) for the following compound: COc1c(OCC2(N(C)C)COC2)nc(-c2noc3c2CCC[C@@]32CCCc3sc(N)c(C#N)c32)nc1O[C@@H](C)[C@@H]1CCCN1C [II-25]
Response line: 69
